# Test system: Poly/Mono-ADP Ribose in U2OS cells
# assay_summary: PAR in cell western assay (parylation) in U2OS cells
# Assay type: cell-based
# measurement_context: Homo sapiens; U2OS cells, 6 hrs, 2 mM H2O2; read-out: Parylation (U2OS)
pIC50: −log10 of the molar value.
# Lookup of reported pIC50 keyed by entry

Reference set (2 entries):
{"compound": "CCOc1cc(OC)ccc1COCC(=O)N1CCCC(c2cccc(C(=O)N[C@@H](C(=O)N3CCN(CC4CCN(CC(=O)N5CCN(C(=O)c6cc(Cc7n[nH]c(=O)c8ccccc78)ccc6F)CC5)CC4)CC3)C3CCCCC3)c2)C1 (stereo partly shown)", "value_reported": "6.00 to 7.00"}
{"compound": "O=C(N[C@@H](C(=O)N1CCN(CC2CCN(CC(=O)N3CCN(C(=O)c4cc(Cc5n[nH]c(=O)c6ccccc56)ccc4F)CC3)CC2)CC1)C1CCCCC1)c1cccc(C2CCCN(C(=O)C3CC3)C2)c1 (stereo partly shown)", "value_reported": "7.00 to 8.00"}

May I ask what pIC50 has been recorded for CC(C)(F)C(=O)N1CCCC(c2cccc(C(=O)N[C@@H](C(=O)N3CCN(CC4CCN(CC(=O)N5CCN(C(=O)c6cc(Cc7n[nH]c(=O)c8ccccc78)ccc6F)CC5)CC4)CC3)C3CCCCC3)c2)C1 (stereo partly shown) ?
7.00 to 8.00

Can you look up the measured pIC50 of CC(C)(C)OC(=O)N[C@@H](C(=O)N1CC[C@H](OC2CCN(CC(=O)N3CCN(C(=O)c4cc(Cc5n[nH]c(=O)c6ccccc56)ccc4F)CC3)CC2)C1)C1CCCCC1 for me?
6.00 to 7.00

Any idea what its pIC50 is? The compound is CCc1cccc(-c2cc(N)c(C(=O)N3CCC(CN4CCN(CC(=O)N5CCN(C(=O)c6cc(Cc7n[nH]c(=O)c8ccccc78)ccc6F)CC5)CC4)CC3)c(F)c2)c1
6.00 to 7.00

What does the record list as pIC50 for CC(C)(C)OC(=O)N[C@@H](C(=O)N1CCC(OC2CCN(CC(=O)N3CCN(C(=O)c4cc(Cc5n[nH]c(=O)c6ccccc56)ccc4F)CC3)CC2)CC1)C1CCCCC1 ?
7.00 to 8.00

Fill in the blank: the reported pIC50 of CCc1cccc(-c2cnc(C(=O)NCCOCCNCC(=O)N3CCN(C(=O)c4cc(Cc5n[nH]c(=O)c6ccccc56)ccc4F)CC3)c(N)c2)c1 is ____.
7.00 to 8.00

Find the recorded pIC50 belonging to O=C(N[C@@H](C(=O)N1CCN(CC2CCN(CC(=O)N3CCN(C(=O)c4cc(Cc5n[nH]c(=O)c6ccccc56)ccc4F)CC3)CC2)CC1)C1CCCCC1)c1cccc(C2CCCN(C(=O)CNC3CC3)C2)c1 (stereo partly shown) and report it.
6.00 to 7.00

Data request, read-out pIC50, for O=C(N[C@@H](C(=O)N1CCN(CC23CCC(C(=O)N4CCN(C(=O)c5cc(Cc6n[nH]c(=O)c7ccccc67)ccc5F)CC4)(CC2)CO3)CC1)C1CCCCC1)c1cccc([C@H]2CCCN(C(=O)CNC3CC3)C2)c1 (racemic)
6.00 to 7.00

Reported pIC50 for CCOc1cc(OC)ccc1CNCC(=O)N1CCCC(c2cccc(C(=O)N[C@@H](C(=O)N3CCC(OC4CCN(CC(=O)N5CCN(C(=O)c6cc(Cc7n[nH]c(=O)c8ccccc78)ccc6F)CC5)CC4)CC3)C3CCCCC3)c2)C1 (stereo partly shown) : what is it?
6.00 to 7.00

So what's the measured pIC50 for this one? CC(C)(C)OC(=O)Nc1cc(-c2cccc(C#N)c2)cnc1C(=O)NCCOCCNCC(=O)N1CCN(C(=O)c2cc(Cc3n[nH]c(=O)c4ccccc34)ccc2F)CC1
7.00 to 8.00
